Measured target: KRas G12D (Homo sapiens (Human), UniProt P01116, G12D)
Sequence (P01116 other isoform, or with tags, fused parts or gaps G12D): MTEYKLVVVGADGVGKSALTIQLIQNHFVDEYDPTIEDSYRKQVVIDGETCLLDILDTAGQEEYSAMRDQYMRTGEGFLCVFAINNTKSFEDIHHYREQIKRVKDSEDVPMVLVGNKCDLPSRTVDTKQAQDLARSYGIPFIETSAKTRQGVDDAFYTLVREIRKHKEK
Protocol description: KRas G12D Binding Assay (TR-FRET displacement)
Experimental context: TR-FRET displacement of Cy5 labelled tracer, GDP-loaded KRAS G12D, 60 minute incubation at 22° C.
Reported endpoint: pIC50
The scale used: pIC50 is minus the common logarithm of the concentration in molar units.

Worked examples follow.
{"Compound": "O[C@@H]1C[C@@H]2CN(c3nc(OCC45CCCN4CCC5)nc4c(F)c(-c5cccc6cccc(Cl)c56)ncc34)C[C@H]1N2", "pIC50": 8.23}
{"Compound": "COC(=O)C12CCC(CN(c3nc(OC[C@@H]4CCCN4C)nc4c(F)c(-c5cc(O)cc6ccccc56)ncc34)C1)N2 (stereo partly shown) [Example 158, bis(2,2,2-trifluoroacetate)]", "pIC50": 7.13}
{"Compound": "Fc1c(-c2ccccc2CC(F)(F)F)ncc2c(N3CC4CCC(C3)N4)nc(OC[C@@]34CCCN3C[C@H](F)C4)nc12 (racemic)", "pIC50": 6.23}

Moving on to the next compound.
input: // pIC50 lookup, key: Fc1c(-c2ccccc2C2CCC2)ncc2c(N3CC4CCC(C3)N4)nc(OCC34CCCN3C[C@H](F)C4)nc12 (mixture of isomers)
output: 6.40

----------
Test system: KRas G12D-mediated phosphorylation of ERK
Protocol description: Inhibition of KRas G12D-mediated phosphorylation of ERK in AGS cells
Assay type: cell-based
Experimental context: Homo sapiens; AGS cells expressing G12D, 3 hours, phospho-ERK normalized to GAPDH
Counter-ions that a name gives are not always drawn.
Each entry falls in a class defined on IC50; the bands are LOW = under 900 nM, MID = from 900 nM up to 5000 nM, HIGH = 5000 nM and over

{"Molecule": "Cc1ccc(O)cc1-c1ncc2c(N3C[C@H]4CC[C@@H](C3)N4)nc(OCC34CCCN3CCC4)nc2c1F [Example 256]", "Qualitative label": "HIGH"}
{"Molecule": "CN1CCC[C@H]1COc1nc(N2CC3CCC(Cl)(C2)N3)c2cnc(-c3cc(O)cc4ccccc34)c(F)c2n1 (stereo partly drawn) [Example 160, bis(2,2,2-trifluoroacetate)]", "Qualitative label": "HIGH"}
{"Molecule": "Oc1cc(-c2ncc3c(N4C[C@H]5CC[C@@H](C4)N5)nc(N4CC5(CCOCC5)C4)nc3c2F)c2ccccc2c1 [Example 74]", "Qualitative label": "HIGH"}
{"Molecule": "CC(C)c1ccc(O)cc1-c1ncc2c(N3CC4CCC(C3)N4)nc(OC[C@@]34CCCN3C[C@H](F)C4)nc2c1F (stereo in doubt) [Example 399]", "Qualitative label": "LOW"}
{"Molecule": "CCn1ccc2cccc(-c3ncc4c(N5C[C@H]6CC[C@@H](C5)N6)nc(OCC56CCCN5CCC6)nc4c3F)c21 [Example 427]", "Qualitative label": "MID"}
{"Molecule": "CN1CC(COc2nc(N3C[C@H]4CC[C@@H](C3)N4)c3cnc(-c4cccc5cccc(Cl)c45)c(F)c3n2)CC1=O (stereo partly drawn) [Example 131]", "Qualitative label": "HIGH"}
{"Molecule": "Fc1c(-c2cccc(Cl)c2C2CC2)ncc2c(N3C[C@H]4CC[C@@H](C3)N4)nc(OCC34CCCN3CCC4)nc12 [Example 322]", "Qualitative label": "LOW"}
{"Molecule": "CN(C)Cc1ccc(COCCNC(=O)O[C@@H]2C[C@@H](COc3nc(N4C[C@H]5CC[C@@H](C4)N5)c4cnc(-c5cccc6cccc(Cl)c56)c(F)c4n3)N(C)C2)cc1 [Example 308]", "Qualitative label": "HIGH"}
{"Molecule": "Fc1c(-c2cccc3cccc(OC(F)F)c23)ncc2c(N3C[C@H]4CC[C@@H](C3)N4)nc(OCC34CCCN3CCC4)nc12 [Example 346]", "Qualitative label": "MID"}
{"Molecule": "Cn1ccnc1CCOc1nc(N2C[C@H]3CC[C@@H](C2)N3)c2cnc(-c3cc(O)cc4ccccc34)c(F)c2n1 [Example 3]", "Qualitative label": "HIGH"}

Please look at the following molecule next.
input: Quick check: band for Cn1cc([C@H]2CN3CCC[C@]3(COc3nc(N4CC5CCC(C4)N5)c4cnc(-c5cccc6cccc(Cl)c56)c(F)c4n3)C2)cn1 (stereo in doubt) [Example 220, tris-hydrochloride salt]
output: MID
